Molecular target: T1, CEA-derived … (SEQ ID NO: 71)-HLA-A*0201 complex (biotin on the C-terminal biotinylation tag (enzymatic, BirA))
T1 construct: also called soluble biotinylated HLA-A2-peptide complex; not shown: C-terminal biotinylation tag that replaces the transmembrane and cytoplasmic domains
Test: Biacore SPR, pMHC immobilised
Measured Quantity: koff

Enquiry: Looking for the measured koff of SEQ ID NO 10 (receptor) MAGHLPKPTLWAEPGSVITMDQPVTLRCQGGQETQEYRLYREKKTAPWITRIPQELVKKGQFPIPSITWEHAGRYRCYYGSDTSQWSASSDPLELVVTGVYIKPTLSAQPSPVVNSGGNVTLQCDSQVAFDGFILCKEGEDEHPQCLNSQPHARGSSRAIFSVGPVSPSRRWWYRCYAYTDYSPYEWSLPSDLLELDVDG , can you help?
Return: ≤ 2 s⁻¹

Enquiry: Looking for the measured koff of SEQ ID NO 20 (receptor) MAGHLPKPTLWAEPGSVITMDQPVTLRCQGGQETQEYRLYREKKTAPWITRIPQELVKKGQFPIPSITWEHAGRYRCYYGSDTSQWSASSDPLELVVTGVYIKPTLSAQPSPVVNSGGNVTLQCDSQVAFDGFILCKEGEDEHPQCLNSQPHARGSSRAIFSVGPVSPSRRWWYRCYAYPDFTPYEWSLPSDLLELDVDG , can you help?
Return: ≤ 2 s⁻¹

We now examine a further binder.
Enquiry: Looking for the measured koff of SEQ ID NO 46 (receptor) MAGHLPKPTLWAEPGSVITMDQPVTLRCQGGQETQEYRLYREKKTAPWITRIPQELVKKGQFPIPSITWEHAGRYRCYYGSDTSQWSASSDPLELVVTGVYIKPTLSAQPSPVVNSGGNVTLQCDSQVAFDGFILCKEGEDEHPQCLNSQPHARGSSRAIFSVGPVSPSRRWWYRCYAYDSWSPYEWSLPSDLLELDVDG , can you help?
Return: ≤ 2 s⁻¹
